biological target: Sodium-dependent dopamine transporter (Rattus norvegicus); test: Inhibition of [3H]dopamine uptake at the dopamine transporter.
metric: pIC50
Answers are plain numbers, as −log10 of the molar value.

-- ask Missing value: pIC50, Sodium-dependent dopamine transporter (Rattus norvegicus), entry CN1[C@@H]2CC[C@H]1C[C@H](OC(=O)c1ccccc1)C2 . Fill in?
-- reply 3.96

* * *

biological target: Sodium-dependent dopamine transporter (Rattus norvegicus, UniProt P23977); experiment: Inhibition of [3H]WIN-35428 binding to the dopamine transporter
Sequence (P23977 whole entry): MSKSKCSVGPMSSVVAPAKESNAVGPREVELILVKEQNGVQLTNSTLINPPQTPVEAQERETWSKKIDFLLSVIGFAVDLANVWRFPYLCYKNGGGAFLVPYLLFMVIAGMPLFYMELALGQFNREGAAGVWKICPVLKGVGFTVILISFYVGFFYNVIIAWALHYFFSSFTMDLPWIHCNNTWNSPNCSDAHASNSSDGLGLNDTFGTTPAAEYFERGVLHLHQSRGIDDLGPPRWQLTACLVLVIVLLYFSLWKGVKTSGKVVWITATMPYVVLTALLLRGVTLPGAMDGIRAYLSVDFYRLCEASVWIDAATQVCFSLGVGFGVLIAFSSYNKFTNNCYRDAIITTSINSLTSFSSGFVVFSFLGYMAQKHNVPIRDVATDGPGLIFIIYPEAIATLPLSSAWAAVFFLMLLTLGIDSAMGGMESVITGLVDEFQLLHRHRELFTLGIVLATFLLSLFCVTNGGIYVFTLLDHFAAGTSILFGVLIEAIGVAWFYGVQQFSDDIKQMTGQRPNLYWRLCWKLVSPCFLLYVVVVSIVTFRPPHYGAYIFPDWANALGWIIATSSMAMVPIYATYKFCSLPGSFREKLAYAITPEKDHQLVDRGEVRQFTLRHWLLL
pIC50: −log10 of the molar value.
Label fulfilled when pIC50 is at or above 7; anything below gets not fulfilled.

COC(=O)[C@@H]1C2CC[C@H](C[C@@H]1c1ccccc1)N2C (stereo in doubt; 68): not fulfilled
COC(=O)C1C2CC[C@H](C[C@@H]1c1ccc(Cl)cc1)N2C (stereo not given in full): fulfilled
COC(=O)C1C2CC[C@H](C[C@@H]1OC(=O)c1ccccc1)N2Cc1ccccc1 (stereo not given in full): not fulfilled

Could you now consider this next compound?
-- ask Has COC(=O)[C@@H]1C2CC[C@H](C[C@@H]1c1ccc(N=[N+]=[N-])cc1)N2C a recorded pIC50 greater than or equal to 7?
-- reply fulfilled
